B1: KRT18 (parent)
chain: KSQDLAKIMADIRAQYDELARKNR

variants of: B1; assay: protein stability index of a GFP-peptide fusion (GPS, HEK-293T) (PSI 1-6); higher = more stable; conditions: c terminus: a fixed tail appended;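 also: lentivirally expressed fusions sorted by FACS into six bins by GFP to DsRed ratio, PSI derived from sequencing read proportions per bin multiplied by bin number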
endpoint_name: protein stability index
Numbers only.

[
  {
    "variant_notation": "A10S",
    "protein stability index": 2.84
  },
  {
    "variant_notation": "K7N",
    "protein stability index": 2.86
  },
  {
    "variant_notation": "R21F",
    "protein stability index": 2.39
  }
]

Give one value of protein stability index per listed variant.
1. K7R
2. A6V
3. K22L

Result string:
1: 2.5; 2: 2.29; 3: 2.43

# batch size: 7; output protein stability index per entry
1. R13N
2. S2D
3. I12H
4. Q3K
5. S2L
6. Q3C
7. A6M

Result string:
1. 3.62
2. 2.85
3. 3.55
4. 2.37
5. 1.73
6. 2.02
7. 2.33

List reported protein stability index for each of these variants:
1. Q3R
2. D11A
3. A14F
4. Q15G
5. I8P

Result string:
[2.57, 1.86, 2.74, 3.43, 4.5]

Just for reference, the supplement of paper PMC10567573 is where these values come from.
